- EXPERIMENTAL_SYSTEM: UniProt P42574
- Sequence (P42574 29-175 limits assumed): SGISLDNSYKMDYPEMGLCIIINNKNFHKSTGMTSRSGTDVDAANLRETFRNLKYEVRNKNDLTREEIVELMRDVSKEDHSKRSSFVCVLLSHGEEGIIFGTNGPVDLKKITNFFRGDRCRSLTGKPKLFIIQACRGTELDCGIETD
- Sequence (P42574 176-277 limits assumed): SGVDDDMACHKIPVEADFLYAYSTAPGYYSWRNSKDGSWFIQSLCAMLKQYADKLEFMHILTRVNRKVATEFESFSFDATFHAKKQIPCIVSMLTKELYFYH
- TEST_NAME: Binding affinity against Caspase-3
METRIC_NAME: k3/ki

Example compounds with recorded k3/ki:
[[record]]
compound_string = "CC(C)[C@H](NC(=O)COc1cccc2ccccc12)C(=O)N[C@@H](CC(=O)O)C(=O)CSc1nc(-c2ccccc2)c(-c2ccccc2)[nH]1"
metric_name = "k3/ki"
test_result = "1390 1/m/s"

[[record]]
compound_string = "CC(C)[C@H](NC(=O)COc1cccc2ccccc12)C(=O)N[C@@H](CC(=O)O)C(=O)CSc1nnnn1C"
metric_name = "k3/ki"
test_result = "34400 1/m/s"

[[record]]
compound_string = "CC(C)[C@H](NC(=O)COc1cccc2ccccc12)C(=O)N[C@@H](CC(=O)O)C(=O)CSc1nccn1C"
metric_name = "k3/ki"
test_result = "11500 1/m/s"

[[record]]
compound_string = "CC(C)[C@H](NC(=O)COc1cccc2ccccc12)C(=O)N[C@@H](CC(=O)O)C(=O)COc1ccncn1"
metric_name = "k3/ki"
test_result = "0 1/m/s"

[[record]]
compound_string = "CC(C)[C@H](NC(=O)COc1cccc2ccccc12)C(=O)N[C@@H](CC(=O)O)C(=O)CSc1ncc[nH]1"
metric_name = "k3/ki"
test_result = "850 1/m/s"

[[record]]
compound_string = "Cc1cc(C)nc(SCC(=O)[C@H](CC(=O)O)NC(=O)[C@@H](NC(=O)COc2cccc3ccccc23)C(C)C)n1"
metric_name = "k3/ki"
test_result = "7130 1/m/s"


Turning now to a further compound:
Q: Which measured k3/ki belongs to "CC(C)[C@H](NC(=O)COc1cccc2ccccc12)C(=O)N[C@@H](CC(=O)O)C(=O)CSc1nccc(C(F)(F)F)n1" , tested on UniProt P42574?
Ans: 0 1/m/s
